Measured IC50 of individual entries
# Test system: Phosphorylation of ERK½ in MIA PaCa-2 cells
# procedure details: Phospho-ERK½ MSD Assay in MIA PaCa-2 cells
# Assay type: cell-based
# condition notes: MIA PaCa-2 cells; 4 hours compound treatment; 10 ng/mL EGF for 10 min; read-out: p-ERK IC50 (MIA PaCa-2)
Write down the numeric answer in nM and omit the unit.

Reference set (2 entries):
{"compound": "C=CC(=O)N1CCN(c2nc(=O)n(-c3ccccc3C(C)C)c3nc(-c4c(O)cccc4F)c(Cl)cc23)[C@@H](C)C1 (single isomer, unassigned) [Example 8-6-1]", "system under test": "Phosphorylation of ERK½ in MIA PaCa-2 cells", "numeric result": 10}
{"compound": "C=CC(=O)N1CCN(c2nc(=O)n(-c3ccccc3C(C)C)c3cc(-c4c(O)cccc4F)c(Cl)cc23)[C@@H](C)C1 (single isomer, unassigned) [Example 8-3-2]", "system under test": "Phosphorylation of ERK½ in MIA PaCa-2 cells", "numeric result": 28}

// below: IC50 requested for another compound
Fill in the blank: the reported IC50 of C=CC(=O)N1CCN(c2nc(=O)n(-c3ccccc3C(C)C)c3cc(-c4c(O)cccc4F)c(Cl)cc23)CC1 [Example 8-1] is ____.
211
